meta.source: ChEMBL document CHEMBL4673330

Form field: Activity (one value per entry).
assay: Antioxidant activity assessed as reduction in lipid peroxidation by measuring antiperoxide-index at 0.2 g/L by thiobarbituric acid method relative to control; format: functional; set-up: scale not given: the % may be the effect or the level left
Hi! Could you send only the number? It should be in %, unit omitted.

SMILES_DATA: O=c1oc2ccc3c(c2c2ccccc12)OCO3
Activity, %: 15.8

Incoming: Report Activity for O=C(Oc1ccc2c(c1)OCO2)c1cccc(Cl)c1Cl please.
Outgoing: 11.3

Incoming: Report Activity for O=c1oc2ccc3c(c2c2c(Cl)cccc12)OCO3 please.
Outgoing: 16

Incoming: Report Activity for O=c1oc2ccc3c(c2c2cccc(Cl)c12)OCO3 please.
Outgoing: 16.3

Incoming: Report Activity for O=C(Oc1ccc2c(c1)OCO2)c1cc(Cl)ccc1Cl please.
Outgoing: 13

Incoming: Report Activity for O=C(Oc1ccc2c(c1)OCO2)c1ccccc1Cl please.
Outgoing: 14.2

* * *

assay: Antioxidant activity assessed as reduction in lipid peroxidation by measuring antiperoxide-index at 1 g/L by thiobarbituric acid method relative to control; assay type: functional; set-up: scale not given: the % may be the effect or the level left
PROPERTY_LABEL: Activity (%)
Hi! Could you send only the number? It should be in %, unit omitted.

# example entries with known answers
SMILES_DATA: O=c1oc2ccc3c(c2c2cccc(Cl)c12)OCO3
Activity [%]: 92.9

SMILES_DATA: O=c1oc2ccc3c(c2c2ccc(Cl)cc12)OCO3
Activity [%]: 94.4

SMILES_DATA: O=C(Oc1ccc2c(c1)OCO2)c1c(Cl)cccc1Cl
Activity [%]: 80.2

SMILES_DATA: O=c1oc2ccc3c(c2c2c(Cl)cccc12)OCO3
Activity [%]: 91.1

SMILES_DATA: O=c1oc2ccc3c(c2c2cc(Cl)ccc12)OCO3
Activity [%]: 96.5

Moving on to the next compound.
Incoming: Report Activity for O=C(Oc1ccc2c(c1)OCO2)c1cc(Cl)ccc1Cl please.
Outgoing: 74

* * *

test: Antioxidant activity assessed as hydroxyl radical scavenging rate at 0.6 g/L relative to control; assay type: functional
Everything with Activity lower than 70% is Not fulfilled; everything else, including exactly 70%, is Fulfilled.

Worked set:
SMILES_DATA: O=C(Oc1ccc2c(c1)OCO2)c1ccccc1Cl
DISCRETE_LABEL: Not fulfilled
//
SMILES_DATA: O=c1oc2ccc3c(c2c2ccc(Cl)cc12)OCO3
DISCRETE_LABEL: Fulfilled
//
SMILES_DATA: O=c1oc2ccc3c(c2c2cccc(Cl)c12)OCO3
DISCRETE_LABEL: Fulfilled
//
SMILES_DATA: O=C(Oc1ccc2c(c1)OCO2)c1ccc(Cl)cc1Cl
DISCRETE_LABEL: Not fulfilled

Turning now to a further compound:
Incoming: Determine whether measured Activity meets or exceeds 70% for O=c1oc2ccc3c(c2c2cc(Cl)ccc12)OCO3
Outgoing: Fulfilled

* * *

experiment: Antioxidant activity assessed as hydroxyl radical scavenging rate at 1.2 g/L relative to control; type: functional
PROPERTY_LABEL: Activity (%)
Hi! Could you send only the number? It should be in %, unit omitted.

# example entries with known answers
SMILES_DATA: O=c1oc2ccc3c(c2c2ccccc12)OCO3
PROPERTY_LABEL: Activity
UNIT_OF_MEASURE: %
NUMERIC_VALUE: 88.2
--
SMILES_DATA: Oc1ccc2c(c1)OCO2
PROPERTY_LABEL: Activity
UNIT_OF_MEASURE: %
NUMERIC_VALUE: 71.5
--
SMILES_DATA: O=C(Oc1ccc2c(c1)OCO2)c1cccc(Cl)c1Cl
PROPERTY_LABEL: Activity
UNIT_OF_MEASURE: %
NUMERIC_VALUE: 61

Incoming: Report Activity for O=C(Oc1ccc2c(c1)OCO2)c1cc(Cl)ccc1Cl please.
Outgoing: 74.9

Incoming: Report Activity for O=c1oc2ccc3c(c2c2c(Cl)cccc12)OCO3 please.
Outgoing: 88.2

Incoming: Report Activity for O=C(Oc1ccc2c(c1)OCO2)c1ccccc1Cl please.
Outgoing: 78.2

Incoming: Report Activity for O=c1oc2ccc3c(c2c2cccc(Cl)c12)OCO3 please.
Outgoing: 95.3

Incoming: Report Activity for O=C(Oc1ccc2c(c1)OCO2)c1c(Cl)cccc1Cl please.
Outgoing: 77.1

Incoming: Report Activity for O=c1oc2ccc3c(c2c2cc(Cl)ccc12)OCO3 please.
Outgoing: 98.3

Incoming: Report Activity for O=c1oc2ccc3c(c2c2ccc(Cl)cc12)OCO3 please.
Outgoing: 93.6

Incoming: Report Activity for O=C(Oc1ccc2c(c1)OCO2)c1ccc(Cl)cc1Cl please.
Outgoing: 70.6

* * *

experiment: Antioxidant activity assessed as reduction in lipid peroxidation by measuring antiperoxide-index at 1 g/L by thiobarbituric acid method relative to control; format: functional; set-up: scale not given: the % may be the effect or the level left
PROPERTY_LABEL: Activity
Phrase the answer as number then unit, nothing more needed.

# example entries with known answers
SMILES_DATA: Oc1ccc2c(c1)OCO2
Activity: 72.8%

SMILES_DATA: O=c1oc2ccc3c(c2c2ccccc12)OCO3
Activity: 90%

SMILES_DATA: O=C(Oc1ccc2c(c1)OCO2)c1ccc(Cl)cc1Cl
Activity: 72.3%

SMILES_DATA: O=C(Oc1ccc2c(c1)OCO2)c1cccc(Cl)c1Cl
Activity: 64.4%

Moving on to the next compound.
Incoming: Report Activity for O=C(Oc1ccc2c(c1)OCO2)c1ccccc1Cl please.
Outgoing: 81.1%

* * *

experiment: Antioxidant activity assessed as reduction in lipid peroxidation by measuring antiperoxide-index at 0.2 g/L by thiobarbituric acid method relative to control; format: functional; set-up: scale not given: the % may be the effect or the level left
Form field: Activity (one value per entry).
Phrase the answer as number then unit, nothing more needed.

# example entries with known answers
SMILES_DATA: O=C(Oc1ccc2c(c1)OCO2)c1c(Cl)cccc1Cl
Activity: 14.1%
//
SMILES_DATA: Oc1ccc2c(c1)OCO2
Activity: 12.8%
//
SMILES_DATA: O=c1oc2ccc3c(c2c2ccc(Cl)cc12)OCO3
Activity: 16.6%
//
SMILES_DATA: O=c1oc2ccc3c(c2c2cc(Cl)ccc12)OCO3
Activity: 16.9%

Moving on to the next molecule.
Incoming: Report Activity for O=C(Oc1ccc2c(c1)OCO2)c1ccc(Cl)cc1Cl please.
Outgoing: 12.7%
